# Test system: U-2932
# assay.comment: growth inhibition by drug plus 177Lu-lilotomab satetraxetan (1 - RLU/untreated control) (fraction); higher = stronger inhibition
# condition.set: 1000 nM; time (day): 4; 177Lu-lilotomab satetraxetan 1 ug/ml
parameter: growth inhibition by drug plus 177Lu-lilotomab satetraxetan

Previously resolved entries follow.
{"compound": "CC(C)(C)c1ccc(S(=O)(=O)/C=C/C#N)cc1", "recorded.result": 0.565}
{"compound": "CCOC(=O)C1=C[C@]2(CC)CCCN3CCc4c(n1c1ccccc41)[C@@H]32 [Vinpocetine (Cavinton)]", "recorded.result": 0.0172}
{"compound": "CC[C@]1(O)C[C@H]2CN(CCc3c([nH]c4ccccc34)[C@@](C(=O)OC)(c3cc4c(cc3OC)N(C=O)[C@H]3[C@@](O)(C(=O)OC)[C@H](OC(C)=O)[C@]5(CC)C=CCN6CC[C@]43[C@@H]65)C2)C1 [Vincristine]", "recorded.result": 0.978}
{"compound": "CC(=O)O[C@]1(C(C)=O)CC[C@H]2[C@@H]3C=C(C)C4=CC(=O)CC[C@]4(C)[C@H]3CC[C@@]21C [Megestrol Acetate]", "recorded.result": 0.137}
{"compound": "CN1CCN(CCOc2cc(OC3CCOCC3)c3c(Nc4c(Cl)ccc5c4OCO5)ncnc3c2)CC1 [Saracatinib (AZD0530)]", "recorded.result": -0.108}
{"compound": "CCCCc1nc2cc(/C=C/C(=O)NO)ccc2n1CCN(CC)CC [SB939 (Pracinostat)]", "recorded.result": 0.96}

Report growth inhibition by drug plus 177Lu-lilotomab satetraxetan for every entry below.
1. CCn1c(-c2nonc2N)nc2c(C#CC(C)(C)O)ncc(OC[C@H]3CCCNC3)c21
2. COc1cc2nccc(Oc3ccc(NC(=O)Nc4cc(C)on4)c(Cl)c3)c2cc1OC [Tivozanib (AV-951)]
3. COc1cc([C@@H]2c3cc4c(cc3[C@@H](O[C@@H]3O[C@@H]5CO[C@@H](C)O[C@H]5[C@H](O)[C@H]3O)[C@H]3COC(=O)[C@H]23)OCO4)cc(OC)c1O [Etoposide (VP-16)]
4. CN1CCC(CNc2ccc3ncc(-c4cccc(OC(F)(F)F)c4)n3n2)CC1 [SGI-1776 free base]
5. N#CCNC(=O)c1ccc(-c2ccnc(Nc3ccc(N4CCOCC4)cc3)n2)cc1

[out]
1. 0.736
2. 0.217
3. 0.901
4. 0.125
5. 0.174

Report growth inhibition by drug plus 177Lu-lilotomab satetraxetan for every entry below.
1. CO[C@H]1C[C@@H]2CC[C@@H](C)[C@@](O)(O2)C(=O)C(=O)N2CCCC[C@H]2C(=O)O[C@H]([C@H](C)C[C@@H]2CC[C@@H](O)[C@H](OC)C2)CC(=O)[C@H](C)/C=C(\C)[C@@H](O)[C@@H](OC)C(=O)[C@H](C)C[C@H](C)/C=C/C=C/C=C/1C [Rapamycin (Sirolimus)]
2. CN(c1ncccc1CNc1nc(Nc2ccc3c(c2)CC(=O)N3)ncc1C(F)(F)F)S(C)(=O)=O
3. Cc1ccc(NC(=O)c2ccc(CN3CCN(C)CC3)cc2)cc1Nc1nccc(-c2cccnc2)n1 [Imatinib (Gleevec)]
4. COc1ccc(CCN2CCN(CCCc3ccccc3)CC2)cc1OC
5. O=C(/C=C/c1cccc(S(=O)(=O)Nc2ccccc2)c1)NO [Belinostat (PXD101)]
6. C[C@@H](Oc1cc(-n2cnc3ccc(CN4CCN(C)CC4)cc32)sc1C(N)=O)c1ccccc1C(F)(F)F
7. CC(C)OC(=O)C1=CN(C(=O)c2ccc(F)c(F)c2)CC(C)(C)c2c1[nH]c1ccccc21
8. Cc1ccc(C(=O)N(CCCN)[C@@H](c2nc3cc(Cl)ccc3c(=O)n2Cc2ccccc2)C(C)C)cc1

[out]
[0.69, 0.336, -0.0527, 0.0062, 0.975, 0.959, 0.085, 0.973]

[in] // fetch growth inhibition by drug plus 177Lu-lilotomab satetraxetan; item: `NC(=O)c1ccc(-c2nc(-c3ccccn3)c(-c3ccc4c(c3)OCO4)[nH]2)cc1` ; system: U-2932
[out] 0.102
